TARGET SYSTEM: HIV-1 RT (Human immunodeficiency virus type 1 group M subtype B, UniProt P04585)
Type: biochemical
CONDITION SUMMARY: read-out: IC50 Amp-RT assay; patient-derived virus 12 (L1), None
MEASURED ENDPOINT: pIC50
Convention used: pIC50 is expressed as -log10 of the molar concentration.

// recorded pIC50 for Cc1cn([C@H]2C[C@H](N=[N+]=[N-])[C@@H](CO)O2)c(=O)[nH]c1=O [AZT, zidovudine] : 6.46

---

Test system: HIV-1 RT
Format: biochemical
CONDITION SUMMARY: specimen no. 40 (T215Y and T69S-EA insertions)
MEASURED ENDPOINT: pIC50
Convention used: pIC50 is expressed as -log10 of the molar concentration.

Form field pIC50 for item Cc1cn([C@H]2C[C@H](N=[N+]=[N-])[C@@H](COP(=O)(O)OP(=O)(O)OP(=O)(O)O)O2)c(=O)[nH]c1=O [AZT-TP, AZT-triphosphate] on HIV-1 RT: 6.40
